- system-under-test: GPR43 (Homo sapiens)
- Construct: expressed in transfected cells
- Sequence (O15552 1-330): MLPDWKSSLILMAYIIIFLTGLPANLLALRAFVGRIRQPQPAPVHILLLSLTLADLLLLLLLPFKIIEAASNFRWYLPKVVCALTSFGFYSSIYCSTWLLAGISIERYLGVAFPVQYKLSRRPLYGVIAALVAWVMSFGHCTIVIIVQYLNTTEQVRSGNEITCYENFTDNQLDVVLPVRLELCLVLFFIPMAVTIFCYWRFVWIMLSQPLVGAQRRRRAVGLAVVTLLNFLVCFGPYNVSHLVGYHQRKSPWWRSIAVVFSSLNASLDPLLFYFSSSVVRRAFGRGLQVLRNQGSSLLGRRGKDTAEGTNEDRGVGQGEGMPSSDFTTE
- assay-procedure: Calcium mobilization assay without probenecid
- Format: cell-based
- conditions: GPR43 stably expressing cells, triggered with sodium acetate at EC80, read-out: GPR43 assay without probenicid IC50
assay-metric: IC50

{"columns": ["compound", "reading"],
 "data": [
  ["CN(Cc1ccc(Cl)cc1)C(=O)C1(C)CCN1C(=O)Cc1cccc(-c2cccc(Cl)c2)c1 (centres unmarked)", "> 1000 nM"],
  ["CN(Cc1ccc(Cl)cc1)C(=O)C1(C)CCN1C(=O)Cc1ccc2ccccc2c1 (centres unmarked)", "501 to 1000 nM"],
  ["O=C(O)CN(Cc1ccc(Cl)cc1)C(=O)C1(CO)CCN1C(=O)Cc1csc2ccccc12 (centres unmarked)", "> 1000 nM"],
  ["CC1(C(=O)NCc2ccc(C(F)(F)F)cc2)CCN1C(=O)Cc1ccc(Cl)cc1Cl (centres unmarked)", "> 1000 nM"],
  ["Cc1cc(C)cc(CC(=O)N2CCC2(C)C(=O)N(C)Cc2ccc(C(C)(C)C)cc2)c1 (centres unmarked)", "> 1000 nM"],
  ["Cc1cc(C)cc(CC(=O)N2CCC2(C)C(=O)N(Cc2ccc(Cl)cc2)[C@H](C)C(=O)O)c1 (some centres unmarked)", "> 1000 nM"],
  ["Cc1cc(C)cc(CC(=O)N2CCC2(C)C(=O)N(C)Cc2ccc(C(F)(F)F)cc2)c1 (centres unmarked)", "101 to 500 nM"],
  ["CN(Cc1ccc(Cl)cc1)C(=O)C1(C)CCN1C(=O)Cc1ccccc1Cl (centres unmarked)", "> 1000 nM"],
  ["Cc1cc(C)cc(CC(=O)N2CCC2(C)C(=O)N(CC(=O)N2CCOCC2)Cc2ccc(Cl)cc2)c1 (centres unmarked)", "> 1000 nM"],
  ["CC1(C(=O)N(CC(=O)O)Cc2ccc(Cl)cc2)CCN1C(=O)Cc1csc2ccccc12 (centres unmarked)", "0.01 to 100 nM"],
  ["CCN(Cc1ccc(Cl)cc1)C(=O)C1(C)CCN1C(=O)Cc1cc(C)cc(C)c1 (centres unmarked)", "101 to 500 nM"],
  ["Cc1cc(C)cc(CC(=O)N2CCC2(C)C(=O)N(C)Cc2ccc(Cl)cc2Cl)c1 (centres unmarked)", "> 1000 nM"],
  ["CN(Cc1ccc(Cl)cc1)C(=O)C1(C)CCN1C(=O)Cc1ccc(-c2cccc(C#N)c2)cc1 (centres unmarked)", "> 1000 nM"],
  ["Cc1cc(C)cc(CC(=O)N2CCC2(C)C(=O)N(CC(=O)O)Cc2cccc(C)c2)c1 (centres unmarked)", "> 1000 nM"],
  ["Cc1cc(C)cc(CC(=O)N2CCC2(C)C(=O)N(CC(=O)NC(C)C)Cc2ccc(Cl)cc2)c1 (centres unmarked)", "> 1000 nM"],
  ["Cc1cc(C)cc(CC(=O)N2CCC2(C)C(=O)N(CC(=O)N(C)C)Cc2ccc(Cl)cc2)c1 (centres unmarked)", "501 to 1000 nM"],
  ["Cc1cc(C)cc(CC(=O)N2CC[C@@]2(C)C(=O)N(CC(=O)O)Cc2ccc(Cl)cc2)c1 [Compound 81a]", "> 1000 nM"],
  ["COc1cccc(-c2ccc(CC(=O)N3CCC3(C)C(=O)N(C)Cc3ccc(Cl)cc3)cc2)c1 (centres unmarked)", "> 1000 nM"],
  ["Cc1cccc(CN(CC(=O)O)C(=O)C2(C)CCN2C(=O)Cc2csc3ccccc23)c1 (centres unmarked)", "> 1000 nM"],
  ["Cc1cc(C)cc(CC(=O)N2CCC2(C)C(=O)N(Cc2ccc(Cl)cc2)C2CC2)c1 (centres unmarked)", "> 1000 nM"],
  ["Cc1cc(C)cc(CC(=O)N2CCC2(C)C(=O)N(CC(=O)O)Cc2ccc3cc[nH]c3c2)c1 (centres unmarked)", "101 to 500 nM"],
  ["Cc1cc(C)cc(CC(=O)N2CCC2(C)C(=O)N(CC#N)Cc2ccc(Cl)cc2)c1 (centres unmarked)", "101 to 500 nM"],
  ["CN(Cc1ccc(Cl)cc1)C(=O)C1(C)CCN1C(=O)Cc1ccc(-c2ccccc2)cc1 (centres unmarked)", "> 1000 nM"],
  ["CC1(C(=O)N(CC(=O)O)Cc2ccc(Cl)cc2)CCN1C(=O)Cc1noc2ccccc12 (centres unmarked)", "> 1000 nM"],
  ["CC1(C(=O)N(CC(=O)O)Cc2cccc(Cl)c2)CCN1C(=O)Cc1csc2ccccc12 (centres unmarked)", "101 to 500 nM"],
  ["COC(=O)CN(Cc1cccc(Cl)c1)C(=O)C1(C)CCN1C(=O)Cc1csc2ccccc12 (centres unmarked)", "> 1000 nM"],
  ["CC1(C(=O)NCc2ccc(Cl)cc2)CCN1C(=O)Oc1ccc(Cl)cc1 (centres unmarked)", "> 1000 nM"],
  ["Cc1cc(C)cc(CC(=O)N2CC[C@]2(C)C(=O)N(CC(=O)O)Cc2ccc(Cl)cc2)c1", "101 to 500 nM"],
  ["COC(=O)[C@H](C)N(Cc1ccc(Cl)cc1)C(=O)C1(C)CCN1C(=O)Cc1cc(C)cc(C)c1 (some centres unmarked)", "> 1000 nM"],
  ["CN(Cc1ccc(Cl)cc1)C(=O)C1(C)CCN1C(=O)Cc1ccccc1I (centres unmarked)", "> 1000 nM"],
  ["CC1(C(=O)N(CC#N)Cc2ccc(Cl)cc2)CCN1C(=O)Cc1csc2ccccc12 (centres unmarked)", "101 to 500 nM"],
  ["Cc1cc(C)cc(CC(=O)N2CCC2(C)C(=O)N(C)Cc2ccc(OC(F)(F)F)cc2)c1 (centres unmarked)", "501 to 1000 nM"]
]}

Where these numbers come from: patent US8759334B2
